B1: BTBD1 (parent)
chain: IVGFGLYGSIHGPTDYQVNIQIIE

# Variants of: B1
# measurement-description: protein stability index of a GFP-peptide fusion (GPS, HEK-293T) (PSI 1-6); higher = more stable;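 further: lentivirally expressed fusions sorted by FACS into six bins by GFP to DsRed ratio, PSI derived from sequencing read proportions per bin multiplied by bin number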
# assay-setup: c terminus: a fixed tail appended
readout-kind: protein stability index

Data request: Value lookup for protein stability index; key = IVGFGLYGSIHGPDDYQVNIQIIE [T14D]
Data returned: 2.94

Data request: Try the variant IVGFGLYGSIHGPTDYEVNIQIIE [Q17E]
Data returned: 2.95

Data request: Subsequent entry: CVGFGLYGSIHGPTDYQVNIQIIE [I1C]
Data returned: 2.91

Data request: Same question for IVGFGLYGSIHGPTDYQVNIQIYE [I23Y] please.
Data returned: 2.12

Data request: Check IVGFGLYGSIHGPQDYQVNIQIIE [T14Q] too.
Data returned: 3.12

Data request: And IVGFGLYGSIHGPTDTQVNIQIIE [Y16T] ?
Data returned: 4.3

Data request: Would you mind doing IVGFGLYHSIHGPTDYQVNIQIIE [G8H] as well?
Data returned: 2.61

Data request: Try RVGFGLYGSIHGPTDYQVNIQIIE [I1R] next.
Data returned: 1.65

Data request: What do you get for IVGFGLYGSIHGPTDYNVNIQIIE [Q17N] ?
Data returned: 2.98

Data request: Param item: IVGFGLYGSIPGPTDYQVNIQIIE [H11P]
Data returned: 2.57

Data request: # iterate: IVGFGLYGSIHIPTDYQVNIQIIE [G12I]
Data returned: 1.72

Data request: Entry IVGFGLYGSIHGLTDYQVNIQIIE [P13L] please
Data returned: 2.25

Data request: Further, for IVGFGLYGSIHGPTDYQVNIQINE [I23N] ?
Data returned: 3.56

Data request: Check IVGFGLYGQIHGPTDYQVNIQIIE [S9Q] too.
Data returned: 2.56

Data request: And for IVGFGLMGSIHGPTDYQVNIQIIE [Y7M] ?
Data returned: 2.82

Data request: Queued: IVGKGLYGSIHGPTDYQVNIQIIE [F4K]
Data returned: 2.39

Data request: Now try IVGFGLYGWIHGPTDYQVNIQIIE [S9W] .
Data returned: 2.76

Data request: Consider next the variant IVGFGLYGFIHGPTDYQVNIQIIE [S9F] in the same way.
Data returned: 2.95

Data request: Here is the next variant: IVGFGLYGSIHGPTDYQVWIQIIE [N19W]
Data returned: 1.76

Data request: Check ICGFGLYGSIHGPTDYQVNIQIIE [V2C] too.
Data returned: 3.88

Data request: Entry IVGFGLYGSIHGATDYQVNIQIIE [P13A] please
Data returned: 2.3

Data request: Would you mind doing IVGFGLYGSIHGPTIYQVNIQIIE [D15I] as well?
Data returned: 3.86

Data request: Another variant to look at: IVGFGLYGSIHYPTDYQVNIQIIE [G12Y]
Data returned: 1.89

Data request: Query IVGFGLYGSIHGPTDYQVNIQIIL [E24L] next
Data returned: 4.16

Data request: Same question for IVGFGLYGSIHGQTDYQVNIQIIE [P13Q] please.
Data returned: 3.17

Data request: Let us now turn to IVGFGLYGSIHGPTDYQVNLQIIE [I20L]
Data returned: 3.4

Data request: Queued: IVGFGLYGSIHGPTDYQVNIQIIT [E24T]
Data returned: 3.78
